method.notes: NCI Yeast Anticancer Drug Screen. Data for the mgt1 strain (AID 153)
condition.label: S. cerevisiae mgt1 mutant growth inhibition; at 100.0 µM
This is part of a sample that, as a whole, favours compounds with a hit. Of some 79,000 tested, about 15% had one in any assay. Activity calls are given as the source filed them. Cut-off read from the data, not from the text of the source: active = growth inhibition above about 70%; inactive = the rest.
Allowed answers: active, inactive

Answer briefly: the call reported for O=C(O)c1ccccc1.[Ag] in this assay. active

Answer briefly: the call reported for CC1CCC2(C(=O)O)CCC3(C)C(=CCC4C5(C)CC(O)C(O)C(C)(CO)C5C(O)CC43C)C2C1C (stereo not given) in this assay. inactive

Answer briefly: the call reported for CC(=O)C1(O)Cc2c(O)c3c(c(O)c2C(OC2CC(N)C(O)C(C)O2)C1)C(=O)c1ccccc1C3=O (stereo not given) in this assay. active

Next:
Answer briefly: the call reported for Nc1nc(F)nc2c1ncn2C1OC(COP(=O)(O)O)C(O)C1O (stereo not given) in this assay. inactive

Answer briefly: the call reported for Nc1ccc2c(=S)c3ccccc3[nH]c2c1 in this assay. inactive

Entry source: PubChem BioAssay (NCI)
